- Tested on: SK-MEL-5
- protocol: NCI tumour cell line growth inhibition, 48 h
Active and inactive are the calls of the source. No stated cut-off is given here; in the data, active = GI50 up to about 1.1 µM and inactive = higher.
Just give me one of these, please: active, inactive

N#Cc1cnn2ccn(C3OC(COC(=O)c4ccccc4)C(OC(=O)c4ccccc4)C3OC(=O)c3ccccc3)c12 (stereo unspecified): inactive
CCCCCCCCCCCCCCCCCCNc1ccn(C2OC(COP(=O)(O)OCC3OC(n4cc(C)c(=O)[nH]c4=O)CC3F)C(O)C2O)c(=O)n1 (stereo unspecified): inactive
NC1C2(CCCCCC2)NC(=O)C12CCCCCC2 (stereo unspecified): inactive

# evaluate next
Dear all, I need the recorded test outcome for "COc1cc2c(cc1NC(=O)c1ccccc1)c1c(n2S(=O)(=O)c2ccccc2)CCN(S(=O)(=O)c2ccccc2)C1" , thank you. inactive
